# Test system: MDA-MB-435
# assay-summary: NCI tumour cell line growth inhibition, 48 h
experimental-endpoint: TGI

The compound listed as COc1cc(C2CC(=O)c3c(C)nn(-c4nc5ccccc5[nH]4)c3C2)cc(OC)c1OC (stereo not drawn) shows TGI equal to > 100 µM

The compound listed as CN1C(=O)CN=C(c2ccccc2F)c2cc(N=C=S)ccc21 shows TGI equal to > 100 µM

The compound listed as CCOC(=O)C1=C(C)NC(C)=C(C(=O)OCC)C1c1cc(Br)c(O)c(OC)c1 shows TGI equal to 6.2 µM

* * *

# Tested on: OVCAR-5 ovarian
# assay-summary: NCI tumour cell line growth inhibition, 48 h
experimental-endpoint: TGI

The compound listed as CC(=O)NC1CCCN(O)C(=O)/C=C(/C)CCOC(=O)C(NC(C)=O)CCCN(O)C(=O)/C=C(/C)CCOC(=O)C(NC(C)=O)CCCN(O)C(=O)/C=C(/C)CCOC1=O.[Fe] (centres undefined) shows TGI equal to > 100 µM

The compound listed as Cc1cc(CN(Cc2ccccc2)Cc2nc3ccccc3[nH]2)c(O)c(CN(Cc2nc3ccccc3[nH]2)Cc2nc3ccccc3[nH]2)c1 shows TGI equal to > 100 µM

The compound listed as Cc1ccc(S(=O)(=O)Nn2c(C)cc3ccc(S(=O)(=O)Nc4ccccc4[N+](=O)[O-])cc3c2=O)cc1 shows TGI equal to > 100 µM

The compound listed as O=[N+]([O-])c1ccc(/C=N/n2c(CCc3n[nH]c(=S)n3/N=C/c3ccc([N+](=O)[O-])o3)n[nH]c2=S)o1 shows TGI equal to > 100 µM

The compound listed as C=CCC1(O)C(=O)OC2C(O)COC21O (centres undefined) shows TGI equal to > 100 µM

The compound listed as C[As](C)SCC(NC(=O)CCC(N)C(=O)O)C(=O)NCC(=O)O.Cl.c1ccncc1 (centres undefined) shows TGI equal to 6.89 µM

The compound listed as CC1=C(C(=O)Nc2cccc(C(F)(F)F)c2)C(c2ccccc2F)C(C(=O)Nc2cccc(C(F)(F)F)c2)=C(C)N1 shows TGI equal to 24.5 µM

The compound listed as Cc1ccc(S(=O)(=O)Nc2cccc(C)c2C)cc1 shows TGI equal to > 100 µM

The compound listed as c1ccc2c(c1)ccc1nc3ccccn3c12 shows TGI equal to > 100 µM

Entry source: PubChem BioAssay (NCI)
